Value source: patent US4818753A

Entries and their MFC values follow.
System: Penicillium citrinum (9849)
Assay: Broth dilution assay, F19
Assay type: cell-based
Details: Table 1, F19, Sabouraud Dextrose Broth pH 5.5, read-out: Minimum Lethal Concentration (C, fungicidal)
READOUT TYPE: MFC (µg/mL)

INSERT INTO assay_data (compound, comparison_sign, endpoint_result) VALUES
  ('Cc1c(CCC(C)C)ccc2nc(N)nc(N)c12 [--CH2 CH2 CH(CH3)2]', '>', 100),
  ('Cc1cccc(N(C)C(=S)Oc2ccc3ccccc3c2)c1 [Tolnaftate, reference compound]', '=', 30),
  ('Cc1cccc2nc(N)nc(N)c12 [H]', '>', 100),
  ('CCCc1ccc2nc(N)nc(N)c2c1C [--CH2 CH2 CH3]', '>', 100),
  ('CCCCCCc1ccc2nc(N)nc(N)c2c1C [--CH2 (CH2)4 CH3]', '=', 100),
  ('CCCCCc1ccc2nc(N)nc(N)c2c1C [--CH2 (CH2)3 CH 3]', '=', 100),
  ('CCCCc1ccc2nc(N)nc(N)c2c1C [--CH2 (CH2)2 CH3]', '>', 100);
